ASSAY SUMMARY: Toxicity in C57BL/6 mouse assessed as maximum tolerated dose administered through gavage twice daily measured after 7 days
TEST SETTINGS: in vivo, po, time 7 day
READOUT NAME: MTD at 168 h

Task item: What value of measured MTD at 168 h is listed for "Cc1nc(Nc2ncc(C(=O)Nc3c(C)csc3Cl)s2)cc(N2CCN(CCO)CC2)n1" ?
Reply: ≤ 100 mg/kg
